TARGET OR SYSTEM: human KLK4 (human, UniProt Q9Y5K2 31-254, limits assumed)
Sequence (Q9Y5K2 31-254 limits assumed): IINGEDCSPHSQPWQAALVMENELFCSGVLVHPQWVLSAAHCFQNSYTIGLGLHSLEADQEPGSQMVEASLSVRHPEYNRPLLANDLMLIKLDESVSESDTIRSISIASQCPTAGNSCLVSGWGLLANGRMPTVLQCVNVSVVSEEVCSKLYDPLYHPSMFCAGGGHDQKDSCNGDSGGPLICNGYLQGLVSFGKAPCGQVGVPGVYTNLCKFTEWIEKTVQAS
ASSAY PROCEDURE: column 8: KLK4 activity assay, 2 nM KLK4
pIC50: −log10 of the molar value.
Each entry below lists one item and its recorded pIC50 value.

Recorded results for 2 binders are shown here.
1. 10C5 (antibody, V domains shown, Rabbit monoclonal; also called Chimeric 10C5; KLK5.10C5 (complex sample)) VH: QSLEESGGGLVKPTDTLTLTCTVSGFSLSSYGVTWVRQAPGRGLEWIGYITSNYGVSYYASWAKSRSTITRNTNLNTVTLKMTSLTAADTATYFCARENPDYGYAYDAWGPGTLVTVSV VL: AYDMTQTPASLEAAVGGTVTINCQASESISNELSWYQQKPGQPPDLLIYYASTLASGVPSRFKGSGSGTEFTLTISDLECADAATYYCAQGFGSSGVENVFGGGTEVVVK | < 7.00
2. 10H3 (antibody, V domains shown, also called KLK5.10H3 (complex sample)) VH: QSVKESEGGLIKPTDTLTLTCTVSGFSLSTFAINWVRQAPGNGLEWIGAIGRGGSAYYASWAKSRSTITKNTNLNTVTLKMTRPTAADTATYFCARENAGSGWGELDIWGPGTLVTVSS VL: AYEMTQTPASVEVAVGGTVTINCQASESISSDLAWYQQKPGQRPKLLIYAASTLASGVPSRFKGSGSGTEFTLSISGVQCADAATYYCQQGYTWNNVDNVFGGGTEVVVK | < 7.00

// below: pIC50 requested for another binder
Which value of pIC50 has been reported for 3-3F5 (antibody, V domains shown, Rabbit monoclonal; also called Chimeric 3-3F5) VH: QSVKESEGGLFKPTDTLTLTCTVSGFSLNDYGVSWVRQAPGNGLEWIGAIGSSGVAWYANWAKGRSTITRNTNLNTVTLKMASLTAADTATYFCARDRDYGYRADDATSGMDLWGPGTLVTVSS VL: AYDMTQTPASVEAAVGGTVTIKCQASESIGNALAWYQQKPGQPPKLLIYDASDLASGVPSRFKGSGSGTQFTLTISGVECADAATYYCQQGDSHNNVDNIFGGGTEVVVK in the records?
< 7.00
